- System: HeLa
- Assay Comment: Cytotoxicity against human HeLa cells assessed as inhibition of cell viability incubated for 24 hrs by resazurin dye based fluorescence analysis
Quantity: IC50
# include the unit after the value

Input: If you can, please state the reported IC50 value of CC[C@H]1CN2CCc3cc(OC)c(OC)cc3[C@@H]2C[C@@H]1C[C@H]1NCCc2cc(OC)c(OC)cc21 .
Output: 0.013 µM

====

- Assay Comment: Cytotoxicity against human HeLa cells assessed as cell viability at 20 uM incubated for 24 hrs by resazurin dye base fluorescence analysis relative to control
- Type: cell-based
- Stated Conditions: read-out: Activity
Recorded viability at 24 h, 20 µM for the following molecules
Give the quantity in %, number only.

Known viability at 24 h, 20 µM results, listed for orientation:
| Molecule | Assay Result |
| --- | --- |
| C/C(=N\NC(=O)C(O)C(O)C(=O)N/N=C(\C)c1c(O)c2cc(C)ccc2oc1=O)c1c(O)c2cc(C)ccc2oc1=O (racemic) | 85.3 |
| C/C(=N\NC(=O)C(O)C(O)C(=O)N/N=C(\C)c1c(O)c2c(ccc3ccccc32)oc1=O)c1c(O)c2c(ccc3ccccc32)oc1=O (racemic) | 98.1 |
| C/C(=N\NC(=O)C(O)C(O)C(=O)N/N=C(\C)c1c(O)c2cc(Cl)ccc2oc1=O)c1c(O)c2cc(Cl)ccc2oc1=O (racemic) | 100 |
| C/C(=N\NC(=O)C(O)C(O)C(=O)N/N=C(\C)c1c(O)c2cc(F)ccc2oc1=O)c1c(O)c2cc(F)ccc2oc1=O (racemic) | 84.6 |
| COc1ccc2oc(=O)c(/C(C)=N/NC(=O)C(O)C(O)C(=O)N/N=C(\C)c3c(O)c4cc(OC)ccc4oc3=O)c(O)c2c1 (racemic) | 84.6 |

Input: If you can, please state the reported viability at 24 h, 20 µM value of C/C(=N\NC(=O)C(O)C(O)C(=O)N/N=C(\C)c1c(O)c2ccccc2oc1=O)c1c(O)c2ccccc2oc1=O (racemic) .
Output: 78.4

Input: Record: C/C(=N\NC(=O)C(O)C(O)C(=O)N/N=C(\C)c1c(O)c2cc(Br)ccc2oc1=O)c1c(O)c2cc(Br)ccc2oc1=O (racemic)
Output: 100
